# TARGET: mouse SSTR5 (somatostatin receptor 5) (Mus musculus, UniProt O08858)
# Sequence (O08858 1-362): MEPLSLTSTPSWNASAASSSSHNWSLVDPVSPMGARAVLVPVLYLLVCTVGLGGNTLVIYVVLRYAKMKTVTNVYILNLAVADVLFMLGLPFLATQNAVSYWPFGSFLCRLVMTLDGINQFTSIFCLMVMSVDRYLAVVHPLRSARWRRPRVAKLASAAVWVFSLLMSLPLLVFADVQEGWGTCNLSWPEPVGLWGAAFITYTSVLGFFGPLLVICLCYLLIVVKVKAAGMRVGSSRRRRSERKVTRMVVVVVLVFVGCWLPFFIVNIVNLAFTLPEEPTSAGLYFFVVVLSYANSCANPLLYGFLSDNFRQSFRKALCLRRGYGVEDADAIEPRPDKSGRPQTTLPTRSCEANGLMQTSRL
# EXPERIMENT_NOTES: HTRF cAMP antagonist assay in CHO cells stably expressing mouse SSTR5, stimulated with SST28 and forskolin
MEASUREMENT_NAME: IC50 (nM)
The response must be a number in nM with no trailing unit.

Asked: Which IC50 reading was recorded for the compound Cc1c(C(=O)O)ccn(C2CCN(Cc3cc(C4CC4)c(-c4ccc(F)cc4)c(F)c3OC(C)C)CC2)c1=O [compound-1] ?
Given back: 31
